molecular target: Phosphatidylinositol 4,5-bisphosphate 3-kinase catalytic subunit gamma isoform (Homo sapiens, UniProt P48736); assay: KINOMEscan Enzyme Binding Assays: Kinase enzyme binding affinities of compounds disclosed herein were determined using the KINOMEscan technology performed by DiscoveRx Corporation, San Diego, Calif., USA (www.kinomescan.com).
Sequence (P48736 whole entry, canonical isoform): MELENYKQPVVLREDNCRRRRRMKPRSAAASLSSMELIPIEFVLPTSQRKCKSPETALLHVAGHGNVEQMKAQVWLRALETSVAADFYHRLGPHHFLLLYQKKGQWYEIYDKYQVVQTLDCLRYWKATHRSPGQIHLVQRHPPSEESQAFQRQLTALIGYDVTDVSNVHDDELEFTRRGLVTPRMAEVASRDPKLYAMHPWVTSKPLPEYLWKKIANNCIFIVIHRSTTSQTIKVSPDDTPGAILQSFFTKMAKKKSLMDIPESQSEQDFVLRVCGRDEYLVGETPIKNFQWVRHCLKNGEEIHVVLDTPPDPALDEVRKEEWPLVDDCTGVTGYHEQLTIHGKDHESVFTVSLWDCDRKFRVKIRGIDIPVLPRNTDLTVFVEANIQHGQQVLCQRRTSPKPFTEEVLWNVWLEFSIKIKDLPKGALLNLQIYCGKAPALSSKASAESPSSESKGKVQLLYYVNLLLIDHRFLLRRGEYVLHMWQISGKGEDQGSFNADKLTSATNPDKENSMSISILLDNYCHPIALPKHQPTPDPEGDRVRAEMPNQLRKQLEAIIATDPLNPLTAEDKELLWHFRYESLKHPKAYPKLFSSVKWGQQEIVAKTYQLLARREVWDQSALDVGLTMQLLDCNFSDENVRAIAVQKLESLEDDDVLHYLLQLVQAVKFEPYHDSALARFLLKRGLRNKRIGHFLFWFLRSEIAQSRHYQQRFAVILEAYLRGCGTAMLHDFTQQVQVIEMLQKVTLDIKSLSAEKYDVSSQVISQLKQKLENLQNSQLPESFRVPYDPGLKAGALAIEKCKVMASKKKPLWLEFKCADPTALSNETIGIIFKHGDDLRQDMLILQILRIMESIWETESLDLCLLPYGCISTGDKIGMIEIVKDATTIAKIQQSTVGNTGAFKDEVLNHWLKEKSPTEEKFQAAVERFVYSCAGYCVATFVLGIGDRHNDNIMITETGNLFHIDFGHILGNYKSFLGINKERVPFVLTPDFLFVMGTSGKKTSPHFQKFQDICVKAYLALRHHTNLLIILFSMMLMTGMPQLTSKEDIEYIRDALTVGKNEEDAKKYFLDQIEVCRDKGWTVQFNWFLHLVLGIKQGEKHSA
Reported Kd values follow for various compounds
measured-endpoint: Kd (nM)

{"chemical-smiles": "CCc1c(F)cccc1Cc1c(CNCCO)nc2c(N)cc(N3CCOCC3)nn12", "number": 724}
{"chemical-smiles": "Cc1c(Cc2c(CO)nc3c(-c4cnc[nH]4)cc(N4CCOCC4)nn23)cccc1C(F)(F)F", "number": 1760}

----------
experiment: KINOMEscan Enzyme Binding Assays: Kinase enzyme binding affinities of compounds disclosed herein were determined using the KINOMEscan technology performed by DiscoveRx Corporation, San Diego, Calif., USA (www.kinomescan.com).

{"compound": "CC(CO)NCc1c(F)cccc1Cc1c(CO)nc2c(N)cc(N3CCOCC3)nn12 (stereo unspecified)", "Kd": "> 30.2 µM"}

----------
Entries and their Kd
molecular target: Phosphatidylinositol 4,5-bisphosphate 3-kinase catalytic subunit delta isoform (Homo sapiens, UniProt O00329); test: KINOMEscan Enzyme Binding Assays: Kinase enzyme binding affinities of compounds disclosed herein were determined using the KINOMEscan technology performed by DiscoveRx Corporation, San Diego, Calif., USA (www.kinomescan.com).
Sequence (O00329 whole entry, canonical isoform): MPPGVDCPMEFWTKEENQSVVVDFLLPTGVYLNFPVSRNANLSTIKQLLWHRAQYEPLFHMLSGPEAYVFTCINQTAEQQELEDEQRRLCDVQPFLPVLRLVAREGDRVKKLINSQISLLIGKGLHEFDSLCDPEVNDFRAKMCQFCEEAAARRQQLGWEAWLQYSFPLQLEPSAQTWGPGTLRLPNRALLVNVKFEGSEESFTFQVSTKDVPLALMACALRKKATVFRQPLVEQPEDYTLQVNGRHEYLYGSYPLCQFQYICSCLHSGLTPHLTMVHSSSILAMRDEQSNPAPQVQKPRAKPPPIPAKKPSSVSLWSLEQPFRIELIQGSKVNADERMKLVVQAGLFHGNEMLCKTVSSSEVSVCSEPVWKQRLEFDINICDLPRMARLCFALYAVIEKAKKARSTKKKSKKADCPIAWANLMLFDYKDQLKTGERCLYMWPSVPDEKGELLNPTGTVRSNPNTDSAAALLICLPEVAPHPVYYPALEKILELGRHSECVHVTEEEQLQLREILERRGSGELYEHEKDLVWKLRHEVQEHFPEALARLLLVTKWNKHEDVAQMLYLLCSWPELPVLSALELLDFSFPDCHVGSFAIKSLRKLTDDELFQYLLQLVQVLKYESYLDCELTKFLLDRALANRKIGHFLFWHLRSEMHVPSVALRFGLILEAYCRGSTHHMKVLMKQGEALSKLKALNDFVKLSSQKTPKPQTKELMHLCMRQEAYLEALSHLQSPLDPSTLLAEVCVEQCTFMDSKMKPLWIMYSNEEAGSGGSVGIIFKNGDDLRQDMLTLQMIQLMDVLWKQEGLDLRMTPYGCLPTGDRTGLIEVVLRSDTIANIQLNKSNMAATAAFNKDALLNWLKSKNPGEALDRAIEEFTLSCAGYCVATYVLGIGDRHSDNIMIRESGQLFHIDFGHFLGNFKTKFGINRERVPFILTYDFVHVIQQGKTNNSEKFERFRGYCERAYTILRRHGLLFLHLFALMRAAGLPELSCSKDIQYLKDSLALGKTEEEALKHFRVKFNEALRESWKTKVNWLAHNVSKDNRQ

{"chemical-smiles": "CCc1c(F)cccc1Cc1c(CNCCO)nc2c(N)cc(N3CCOCC3)nn12", "Kd (nM)": 427}
{"chemical-smiles": "Cc1c(Cc2c(CO)nc3c(-c4cnc[nH]4)cc(N4CCOCC4)nn23)cccc1C(F)(F)F", "Kd (nM)": 80}
